# tgt: CDK9 (Homo sapiens, UniProt P50750)
# Construct: host or cells: HEK293-CDK9-Hibit
# Sequence (P50750 whole entry): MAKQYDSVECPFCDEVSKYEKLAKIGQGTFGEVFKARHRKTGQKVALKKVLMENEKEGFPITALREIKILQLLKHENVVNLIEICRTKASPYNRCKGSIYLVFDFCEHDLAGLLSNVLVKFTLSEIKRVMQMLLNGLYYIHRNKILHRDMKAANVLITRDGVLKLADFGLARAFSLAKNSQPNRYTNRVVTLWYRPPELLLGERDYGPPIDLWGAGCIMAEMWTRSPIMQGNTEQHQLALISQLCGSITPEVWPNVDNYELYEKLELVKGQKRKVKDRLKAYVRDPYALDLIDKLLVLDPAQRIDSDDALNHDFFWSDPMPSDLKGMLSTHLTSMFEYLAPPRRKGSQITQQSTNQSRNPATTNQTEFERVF
# assay method text: HiBit Assay Protocol for CDK9 (HIBIT protein quantification, degradation)
# Format: cell-based
# settings: 6 h, HEK293-CDK9-Hibit cells, compound treatment for 6 hours; read-out: CDK9 HIBIT Protein Quantification Maximum
measurement name: Dmax (%)
Answers are plain numbers, in %.

CC1CCCC1N1C(=O)C2(CC2)c2cnc(NC3CCN(S(=O)(=O)N4CC5(CCN(C(=O)CCCCCc6cccc7c6n(C)c(=O)n7C6CCC(=O)NC6=O)CC5)C4)CC3)nc21 (centres unmarked) [Compound 40] ... 44
Cn1c(=O)n(C2CCC(=O)NC2=O)c2ccc(-c3ccc(Oc4cccc(S(=O)(=O)N5CCC(Nc6ncc7c(n6)N([C@@H]6CCC[C@@H](O)C6)C(=O)C76CC6)CC5)c4)cc3)cc21 (some centres unmarked) [Compound 149] ... 17
Cc1cc(CN2CCC(c3ccc4c(N5CCC(=O)NC5=O)nn(C)c4c3)CC2)cc(S(=O)(=O)N2CCC(Nc3ncc4c(n3)N([C@@H]3CCC[C@@H](O)C3)C(=O)C43CC3)CC2)c1 [Compound 167] ... 15
CC1CCCC1N1C(=O)C2(CC2)c2cnc(NC3CCN(S(=O)(=O)N4CCC5(CCN(CCCCCCCOc6cccc7c6n(C)c(=O)n7C6CCC(=O)NC6=O)C5)C4)CC3)nc21 (centres unmarked) [Compound 141] ... 27

In: Form field - read-out: Dmax; system: CDK9 (Homo sapiens, UniProt P50750); submitted item: CC1CCCC1N1C(=O)C2(CC2)c2cnc(NC3CCN(S(=O)(=O)N4CC5(CCCCN5C(=O)CCCCCc5ccc6c(c5)n(C)c(=O)n6C5CCC(=O)NC5=O)C4)CC3)nc21 (centres unmarked) [Compound 76]
Out: 9

====

# tgt: CDK9 (Homo sapiens, UniProt P50750)
# Construct: host or cells: HEK293-CDK9-Hibit
# assay method text: HiBit Assay Protocol for CDK9 (HIBIT protein quantification, degradation)
# Format: cell-based
# settings: HEK293-CDK9-Hibit cells, compound treatment for 6 hours; read-out: CDK9 HIBIT Protein Quantification Maximum
Can you tell me Dmax for the items I'm about to list?
Numbers only, in %.

// worked examples, Dmax included
Cn1nc(N2CCC(=O)NC2=O)c2ccc(C3CCN(Cc4cc(F)cc(S(=O)(=O)N5CCC(Nc6ncc7c(n6)N([C@@H]6CCC[C@@H](O)C6)C(=O)C76CC6)CC5)c4)CC3)cc21 [Compound 170] ... 5
O=C1CCC(N2Cc3cc(CN4CC(Oc5cccc(S(=O)(=O)c6ccc(Nc7ncc8c(n7)N([C@@H]7CCC[C@@H](O)C7)C(=O)C87CC7)cc6)c5)C4)ccc3C2=O)C(=O)N1 (some centres unmarked) [Compound 125] ... 13
CC1CCCC1N1C(=O)C2(CC2)c2cnc(NC3CCN(S(=O)(=O)N4CC5(CCCN(C6CCCN(c7cccc8c7n(C)c(=O)n8C7CCC(=O)NC7=O)C6)C5)C4)CC3)nc21 (centres unmarked) [Compound 135] ... 8
Cn1nc(N2CCC(=O)NC2=O)c2ccc(C3CCN(Cc4cncc(S(=O)(=O)N5CCC(Nc6ncc7c(n6)N([C@H]6CCC[C@H](O)C6)C(=O)C76CC6)CC5)c4)CC3)cc21 (stereo in doubt) [Compound 161] ... 17

In: Form field - read-out: Dmax; system: CDK9 (Homo sapiens, UniProt P50750); submitted item: CC1CCCC1N1C(=O)C2(CC2)c2cnc(NC3CCN(S(=O)(=O)N4CC5(CCCN(c6cccc(-c7cccc8c7n(C)c(=O)n8C7CCC(=O)NC7=O)c6)C5)C4)CC3)nc21 (centres unmarked) [Compound 136]
Out: 14

Data origin, for the record: patent US20260070917A1
